- TEST TARGET: Solute carrier organic anion transporter family member 2B1 (Homo sapiens)
- Sequence (O94956 whole entry): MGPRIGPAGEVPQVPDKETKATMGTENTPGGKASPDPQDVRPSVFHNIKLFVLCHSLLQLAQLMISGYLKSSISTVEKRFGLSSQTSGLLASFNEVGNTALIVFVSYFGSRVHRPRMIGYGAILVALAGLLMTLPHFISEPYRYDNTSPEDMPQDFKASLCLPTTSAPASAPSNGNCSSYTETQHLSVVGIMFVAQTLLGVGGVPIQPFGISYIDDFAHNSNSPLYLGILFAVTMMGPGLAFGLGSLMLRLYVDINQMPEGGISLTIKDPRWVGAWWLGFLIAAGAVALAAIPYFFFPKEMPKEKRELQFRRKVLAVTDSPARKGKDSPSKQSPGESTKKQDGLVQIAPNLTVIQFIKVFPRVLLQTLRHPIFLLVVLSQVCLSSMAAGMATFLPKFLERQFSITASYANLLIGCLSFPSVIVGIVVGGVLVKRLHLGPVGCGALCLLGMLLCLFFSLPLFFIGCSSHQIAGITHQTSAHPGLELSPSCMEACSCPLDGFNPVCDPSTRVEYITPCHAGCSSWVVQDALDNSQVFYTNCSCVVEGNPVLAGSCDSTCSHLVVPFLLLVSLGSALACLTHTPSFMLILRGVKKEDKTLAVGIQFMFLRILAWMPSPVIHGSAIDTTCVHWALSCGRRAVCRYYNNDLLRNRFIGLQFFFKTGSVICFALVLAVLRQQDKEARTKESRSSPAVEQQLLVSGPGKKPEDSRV
- METHOD DESCRIPTION: Inhibition of OATP2B1 (unknown origin) expressed in MDCK2 cells assessed as reduction of [3H]estrone-3-sulfate uptake after 3 mins by beta-counting
REPORTED METRIC: IC50 (µM)

INSERT INTO results (compound, recorded_value) VALUES
  ('COc1cc(C2Oc3c(O)cc([C@H]4Oc5cc(O)cc(O)c5C(=O)[C@@H]4O)cc3C2CO)ccc1O (stereo partly drawn)', 3.6);

P. COc1cc([C@@H]2Oc3cc([C@H]4Oc5cc(O)cc(O)c5C(=O)[C@@H]4O)ccc3O[C@H]2CO)ccc1O
Q. COc1cc([C@H]2Oc3cc([C@H]4Oc5cc(O)cc(O)c5C(=O)[C@@H]4O)ccc3O[C@@H]2CO)ccc1O
Thinking about recorded IC50 values, which is higher, P or Q ? Respond with the label that goes with your answer.
Q
